Test: soluble on expression in E. coli; label from the status in PepcDB or PDB records
testReadout: soluble on expression in E. coli

# count of solved cases: 4
INSERT INTO assay_data (inputsequence, testreadout, measuredresult) VALUES
  ('MAHHHHHHMLSSAAPKRYKFDQRGNLTEVNFLACKSVVPPRTYVHSKNSLTCSTSVIPELHQTAHHCKGRSGANGTSGTNGKSGSTSKMAMSQENIFEAEAISTNAYAHGGGPSSLHSMNMVHSVSSVGSGGNDPSQYVPNQCGNMNMMGTGLSGHEMNNNAPLLFVDGAPYCADDAGQGIDPGVVAVSNALFAYNSAFQSIPIKTSPNVFRRRTKGEGNSEWCNAFVTRVDPCECGDPDEQFKPYEVTKYYDDGQVKTVFNFDQDSAPQEQLM', 'soluble on expression in E. coli', 'soluble'),
  ('MLEVIATCLEDVKRIESAGGKRIELISSYTEGGLTPSYAFIKKAVEVVSIPIHVMIRPHAKSFTYTEEEIEMMKEDIIVAQKLGAAGVVLGVLNERNEVDEEKLADLLSVVDGINVTYHRAIDDIKNPVEAMSTLKKFHKVTHVLTSGGQGNIVENIPVLTEMQKVSEGQIQLVAGAGVTKENIKRLLDETGITQAHVGTAVREGKSCFSEIDPNLVQELVEIIKLEHHHHHH', 'soluble on expression in E. coli', 'soluble'),
  ('MGSDKIHHHHHHMTENEFLSQEEIDKLLSDSDTGGVLTPEEKDMIGEIGNIAMGSAATTLSMILGRDIHITVPTVREEKMKNVKSDFSGEQVVVSVEYTEGLEGLNVLVLDKKLVAVIADLMMGGSGEVETEELDEIKLSAVGEAMNQMMGSAATSLSELLGITINISPPKVEILNFDDPNTQFPPVTDNPEKDVAVVEFEMEIEGLPKSKFYQVISADLVKKMYEYFTKKQSEAAEKKEKKEEKKVKVEPVEFAELKPSETRKTEVPSDKLELLLDIPLKVTVELGRTRMTLKRVLEMIPGSIIELDKLTGEPVDILVNGKLIARGEVVVIDENFGVRITEIVSPKERLELLNE', 'soluble on expression in E. coli', 'not soluble'),
  ('MGSDKIHHHHHHMVKIAVLGLGRVGLRAAYNLASRGFDVLGLDASNDAVSRARSLGLEARLYDVEGRKAGEYLRGQRVVAAFIALPYPVASRAVAHLSSAGIPVVVASIKPLRIDPGVVRAPILTEVGVSPGLSNVILYSMAAETGGGVSARVYVGSFGAREDGLLSHASTWRVEEMLEQYVTPAKLIQDGSEAVADPLDPSLWMEYSDPEHGVLECFPSQGLAGFISRRGSLFKELMECSLRRRGHLKVVLTMRGLGLLDSTPLKVSGCIVRPFDMAVKLVETRYPPDVGDVAVFTVEARRGGRWETLARASLRHGGGWSASSKMVGGASSAFAEVFAAEGLSEEEPGIIYPEDLYELGLAEKLLSLLPSHGVSLEVG', 'soluble on expression in E. coli', 'not soluble');

We next turn to a different sequence, shown below.
Inquiry: Need soluble on expression in E. coli, item GSAPRVQEELCLVCGDRASGYHYNALTCEGCKGFFRRSVTKSAVYCCKFGRACEMDMYMRRKCQECRLKKCLAVGMRPECVVPENQCAMKRREKKAQKEKDKMTTSPSSQHGSPGIHRD
Reply text: soluble
